The values you see were collected from the supplement of paper PMC11208160.

experiment: recombinant UMI read abundance after kanamycin selection (control-corrected) (log10(CPM+1)); higher = more efficient recombination; extreme values may be limits of the assay; sequences stand for … in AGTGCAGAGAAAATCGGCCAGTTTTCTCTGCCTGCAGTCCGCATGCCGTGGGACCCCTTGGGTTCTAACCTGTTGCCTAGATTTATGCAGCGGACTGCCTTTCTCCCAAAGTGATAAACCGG…AGGTTGGTTTCACT; site = the 11-nt donor;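 also: IS621 bridge recombinase in Escherichia coli cells against a fixed T5 target plasmid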
readoutKind: recombinant UMI read abundance (log10)
// return just the number, without any unit appended

Example sequences with recorded recombinant UMI read abundance (log10):
Ask: Any idea what its recombinant UMI read abundance (log10) is? The sequence is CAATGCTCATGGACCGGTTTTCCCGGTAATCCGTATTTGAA (site CATTGCTCTTT)
Result: 0.408

Ask: Field request: recombinant UMI read abundance (log10) | item: GTAGTCGCATGGACCGGTTTTCCCGGTAATCCGTATTTGCA (site GTAGTCGCTGG)
Result: 0.873

Ask: Can you share its recombinant UMI read abundance (log10)? I mean this sequence: TAGACTTCATGGACCGGTTTTCCCGGTAATCCGTATTTGGT (site TAGGCTTCTAC)
Result: 0.329

Ask: recombinant UMI read abundance (log10) for TTGTGATCATGGACCGGTTTTCCCGGTAATCCGTATTTGTG (site TTGTGATCTCA) ?
Result: 1.25

Others:
Ask: What value of measured recombinant UMI read abundance (log10) is listed for TAAGAGACATGGACCGGTTTTCCCGGTAATCCGTATTTGCG (site TAAGAGACTCG) ?
Result: 2.41
